TEST_METHOD_NOTES: folding stability dG unfold (combined trypsin and chymotrypsin); higher = more stable
Output schema: class label derived from folding stability dG unfold. Mapping: class 0 (below 0.6 kcal/mol), class 1 (0.6 kcal/mol to below 2 kcal/mol), class 2 (2 kcal/mol or more)

Below are worked cases with known answers.
>  <CHAIN_SEQUENCE>
SAGGSAGGSAGMLNTTVTVSIPTPEGKVETITIPPGVPLEEAKAKVAEPRPGAEITEIVRVSAGGSAGGSAG [r3_60_JUSTAS]

>  <ANSWER_LABEL>
class 0

$$$$
>  <CHAIN_SEQUENCE>
SAGGSAGGSAGGMRRVTIWFPIPEDEEITFKLPGNGVEVEIEPDKGNGFFRITVYLPDGSAGGSAGGSAGGS [r10_1138_TrROS]

>  <ANSWER_LABEL>
class 1

$$$$
>  <CHAIN_SEQUENCE>
SAGGSAGGSAEELLKAFPNAEIVKYDPETKKFIIKLKDGSYLVVNLETGEIKLVSKEELEKASAGGSAGGSA [r18_381_TrROS_Hall]

>  <ANSWER_LABEL>
class 2

$$$$
>  <CHAIN_SEQUENCE>
SAGFTLKLEFPDSTVDVKVTKVDPKNNIIYAEALLPGGEKLTLTYNPETGEIEIEKKKLERTPDGGLEESAG [r14_466_JUSTAS]

>  <ANSWER_LABEL>
class 1

$$$$
>  <CHAIN_SEQUENCE>
SAGGSAGGSAGKEIHIPFPDGDTPEQAKKFAKEIADMLAQKNGKPIKVDKIEIIPPEQWPSAGGSAGGSAGG [r17_68_TrROS]

>  <ANSWER_LABEL>
class 0

$$$$
>  <CHAIN_SEQUENCE>
SSPVVVSESTDPNSSTKTITVTLPPNARVTLTLPGEPVETRPQPDATATLTTGPDALDITIEPLPPGVPLSA [r9_221_JUSTAS]

>  <ANSWER_LABEL>
class 0

$$$$

Hi there! Could you help me figure out the category for SAGGLPGLSAEELARRLAERLREALAAAGYTVEIELTVEITVTDEDGRTRTFTFTLRIRVEPPPPPPSAGGS [r16_550_TrROS_Hall] please?
class 2

Hi there! Could you help me figure out the category for SAGGSMPLETLETTGEYVPGTGVYVTKLAVGDPKSDVSFSVTETRPTTDPVTGTPSLYSKPVSFSYKKSAGG [r19_129_JUSTAS] please?
class 0

Hi there! Could you help me figure out the category for SAGGDARVARARIRLTRPFPDEDGVVRWEPVVPPGDPVEVGLVLEDDTLVANAVFDGRPVLATVRLESAGGS [r16_500_TrMRF] please?
class 0

Hi there! Could you help me figure out the category for SAGGSAMVRIEVELENGEKLEIEIEVPEEMTEEELLEKAKELAKELAEKLGIPEAKVKVVKIEVVPSAGGSA [r15_463_TrROS_Hall] please?
class 2

Hi there! Could you help me figure out the category for SAGGSAGGSAGGDEVLVFETETVELEVEVRTLNEDGEETTEKEKVTLTVTRVVRLPPGLLSAGGSAGGSAGG [r7_926_TrROS_Hall] please?
class 1

Hi there! Could you help me figure out the category for SAGGSAFKLTFKNMKIESKMPNPDGQKMIRIEWPDGLSIMIHPPNAIWIMPKDDPEMPPGDMVPIDSAGGSA [r15_692_TrROS] please?
class 1

Hi there! Could you help me figure out the category for SAGSPLYEVKSEEVLPGPGGEPMRVTVVELPGGEILTFVESPDGLLEIRYIPAETGKFEKTEKVPRDLLSAG [r5_750_JUSTAS] please?
class 1
